- tested_on: recombinant human Meningioma Expressed Antigen 5 (MGEA5), also referred to as O-GlcNAcase (OGA) (Homo sapiens, UniProt O60502)
- Construct: Full length OGA enzyme was purchased at OnGene (cat #TP322411); purchased OnGene (so in the source)
- Sequence (O60502 whole entry): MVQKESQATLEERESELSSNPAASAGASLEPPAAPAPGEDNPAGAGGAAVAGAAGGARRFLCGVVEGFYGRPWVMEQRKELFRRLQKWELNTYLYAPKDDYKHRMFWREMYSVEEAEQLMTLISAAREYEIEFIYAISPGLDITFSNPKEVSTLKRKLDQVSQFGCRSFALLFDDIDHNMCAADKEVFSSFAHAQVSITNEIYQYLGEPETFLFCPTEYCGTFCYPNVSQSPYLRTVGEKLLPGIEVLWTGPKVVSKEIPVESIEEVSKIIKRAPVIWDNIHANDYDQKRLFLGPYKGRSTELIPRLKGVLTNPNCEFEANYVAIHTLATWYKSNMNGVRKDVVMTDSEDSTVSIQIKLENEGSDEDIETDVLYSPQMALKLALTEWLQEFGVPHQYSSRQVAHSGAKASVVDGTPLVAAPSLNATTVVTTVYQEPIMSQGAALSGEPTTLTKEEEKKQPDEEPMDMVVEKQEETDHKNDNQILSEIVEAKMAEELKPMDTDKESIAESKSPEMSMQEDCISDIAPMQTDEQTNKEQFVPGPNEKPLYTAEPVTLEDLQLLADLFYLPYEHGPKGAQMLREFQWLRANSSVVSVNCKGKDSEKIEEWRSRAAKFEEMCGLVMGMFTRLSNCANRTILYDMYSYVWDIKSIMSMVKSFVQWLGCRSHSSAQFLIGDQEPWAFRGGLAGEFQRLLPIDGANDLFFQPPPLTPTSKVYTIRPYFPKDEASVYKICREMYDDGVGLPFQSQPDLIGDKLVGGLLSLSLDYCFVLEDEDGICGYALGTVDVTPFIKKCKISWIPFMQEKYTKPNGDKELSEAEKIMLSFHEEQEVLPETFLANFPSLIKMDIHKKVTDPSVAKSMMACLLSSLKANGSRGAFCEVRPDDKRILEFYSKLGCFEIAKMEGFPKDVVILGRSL
- procedure_text: OGA biochemical assay: inhibition of hydrolysis of fluorescein mono-ß-D-N-Acetyl-Glucosamine (FM-GlcNAc), fluorescence readout
- condition_info: FM-GlcNAc substrate
- Excerpt: The assay is based on the inhibition of the hydrolysis of fluorescein mono-ß-D-N-Acetyl-Glucosamine (FM-GlcNAc) (Mariappa et al. 2015, Biochem J 470:255) by the recombinant human Meningioma Expressed Antigen 5 (MGEA5), also referred to as O-GlcNAcase (OGA). […] The fluorescence of the latter can be measured at excitation wavelength 485 nm and emission wavelength 538 nm. An increase in enzyme activity results in an increase in fluorescence signal. […]
experimental_endpoint: Enzymatic hOGA; pIC50
# output: bare number, no unit

Looking up "CCCCn1ccc2c(Nc3c(C)ccnc3C)nccc21" , I found its Enzymatic hOGA; pIC50 recorded as 8.16

Looking up Cc1ccnc(C)c1Nc1nccc2c1ccn2CC1CCCO1 (stereo not drawn) , I found its Enzymatic hOGA; pIC50 recorded as 7.14

Looking up "CCCCn1ccc2c(Nc3c(C)ccc4[nH]nnc34)nccc21" , I found its Enzymatic hOGA; pIC50 recorded as 7.31

Looking up Cc1c(F)cnc(C(C)C)c1Nc1nccc2c1ccn2CC1CCO1 (stereo not drawn) , I found its Enzymatic hOGA; pIC50 recorded as 8.75

Looking up "Fc1cc(Cl)c(Nc2nccc3c2ccn3Cc2cnco2)c(Cl)c1" , I found its Enzymatic hOGA; pIC50 recorded as 6.56

Looking up "Cc1cc(F)cc(C(C)C)c1Nc1nccc2c1ccn2CC(C)(F)F" , I found its Enzymatic hOGA; pIC50 recorded as 8.89

Looking up "Cc1cc(OC(F)F)cc(Cl)c1Nc1nccc2c1ccn2CC1CC(F)(F)C1" , I found its Enzymatic hOGA; pIC50 recorded as 7.98

Looking up "Cc1cc(Cn2ccc3c(Nc4c(Cl)cc(F)cc4Cl)nccc32)no1" , I found its Enzymatic hOGA; pIC50 recorded as 8.58

Looking up Cc1ccnc(C(C)C)c1Nc1nccc2c1ccn2CC1CCOC1 (stereo not drawn) , I found its Enzymatic hOGA; pIC50 recorded as 7.76

====

- tested_on: recombinant human Meningioma Expressed Antigen 5 (MGEA5), also referred to as O-GlcNAcase (OGA) (Homo sapiens)
- Construct: Full length OGA enzyme was purchased at OnGene (cat #TP322411); purchased OnGene (so in the source)
- procedure_text: OGA biochemical assay: inhibition of hydrolysis of fluorescein mono-ß-D-N-Acetyl-Glucosamine (FM-GlcNAc), fluorescence readout
- condition_info: FM-GlcNAc substrate, read-out: Enzymatic Emax (%)
experimental_endpoint: Emax (%)
Just the number in %, nothing appended.

Looking up Cc1cc(F)cc(C(C)C)c1Nc1nccc2c1ccn2CC1CCO1 (centres unmarked) , I found its Emax recorded as 104

Looking up Cc1ccnc(OC(F)F)c1Nc1nccc2c1ccn2CC1CCO1 (centres unmarked) , I found its Emax recorded as 105

Looking up CCC(C)(F)Cn1ccc2c(Nc3c(C)ccnc3C)nccc21 (centres unmarked) , I found its Emax recorded as 102

Looking up "Clc1cccc(Cl)c1Nc1nccc2c1ccn2CC1CC1" , I found its Emax recorded as 102

Looking up "Cc1ccnc(C)c1Nc1nccc2c1ccn2CC1(F)CC1" , I found its Emax recorded as 101

Looking up CC[C@H](O)Cn1ccc2c(Nc3c(C)cc(F)cc3C)nccc21 [Compound 145b] , I found its Emax recorded as 102

Looking up "CCCCn1ccc2c(Nc3c(C)cncc3C)nccc21" , I found its Emax recorded as 103

Looking up CC[C@H](O)Cn1ccc2c(Nc3c(C)cc(C#N)cc3Cl)nccc21 [Compound 123b] , I found its Emax recorded as 99.2

Looking up CC[C@@H](O)Cn1ccc2c(Nc3c(C)cc(C(F)(F)F)cc3C)nccc21 [Compound 124a] , I found its Emax recorded as 103

Looking up "Cc1cc(C(F)(F)F)cc(C)c1Nc1nccc2c1ccn2CC1CC(F)(F)C1" , I found its Emax recorded as 102

Looking up "CCCCn1ccc2c(Nc3c(C)cc4c(c3C)OCCO4)nccc21" , I found its Emax recorded as 105

Looking up CCC(C)Cn1ccc2c(Nc3c(C)ccnc3C)nccc21.Cl (centres unmarked) , I found its Emax recorded as 101

Looking up "Cc1cc(Cl)cc(C)c1Nc1nccc2c1ccn2CC(C)(F)F" , I found its Emax recorded as 101

Looking up "Cc1cc(F)cc(F)c1Nc1nccc2c1ccn2CC(C)(F)F" , I found its Emax recorded as 101

Looking up "Cc1cc(C)c(Nc2nccc3c2ccn3CC(F)(F)C(C)C)c(OC(F)F)n1" , I found its Emax recorded as 102

Looking up Cc1ccnc(C(F)F)c1Nc1nccc2c1ccn2CC1CCO1 (centres unmarked) , I found its Emax recorded as 102

Looking up "Cc1ccnc(C(C)C)c1Nc1nccc2c1ccn2CC1CC(F)(F)C1" , I found its Emax recorded as 101

Looking up "Fc1cc(Cl)c(Nc2nccc3c2ccn3Cc2cnco2)c(Cl)c1" , I found its Emax recorded as 99.2

Looking up "Cc1cc(F)cc(F)c1Nc1nccc2c1ccn2CC(F)(F)C(C)C" , I found its Emax recorded as 102

Looking up "FCCCCn1ccc2c(Nc3c(Cl)cccc3Cl)nccc21" , I found its Emax recorded as 103

Looking up "Cc1cc(F)c(F)c(C)c1Nc1nccc2c1ccn2CC(C)(F)F" , I found its Emax recorded as 102

Looking up "N#CCCCn1ccc2c(Nc3c(Cl)cncc3Cl)nccc21" , I found its Emax recorded as 100

Looking up Cc1ccnc(C(C)C)c1Nc1nccc2c1ccn2CC1CCO1 (centres unmarked) , I found its Emax recorded as 103

Looking up "Cc1cc(OC(F)F)nc(C)c1Nc1nccc2c1ccn2CC1CC(F)(F)C1" , I found its Emax recorded as 101

Looking up "CCCCn1ccc2c(Nc3c(C)cc(C)c(Br)c3C)nccc21" , I found its Emax recorded as 103

Looking up "Cc1cncc(C(C)C)c1Nc1nccc2c1ccn2CC1COC1" , I found its Emax recorded as 98

Looking up "FC(F)(F)CCn1ccc2c(Nc3c(Cl)cccc3Cl)nccc21" , I found its Emax recorded as 103

Looking up "Cc1cc(C)c(Nc2nccc3c2ccn3CC(C)(F)F)c(OC(F)F)n1" , I found its Emax recorded as 102

Looking up CC[C@H](O)Cn1ccc2c(Nc3c(C)cc(C(F)(F)F)cc3C)nccc21 [Compound 124b] , I found its Emax recorded as 102

Looking up "CCCCn1ccc2c(Nc3c(C)ccc4[nH]nnc34)nccc21" , I found its Emax recorded as 99

Looking up "Cc1cc(OC(F)F)nc(C)c1Nc1nccc2c1ccn2CC(F)(F)C(C)C" , I found its Emax recorded as 100

Looking up "Cc1cc(C(F)(F)F)cc(Cl)c1Nc1nccc2c1ccn2CC(C)(F)F" , I found its Emax recorded as 101

Looking up "N#Cc1ccc(-n2ccc3c(Nc4c(Cl)cccc4Cl)nccc32)nc1" , I found its Emax recorded as 101

Looking up Cc1ccnc(C)c1Nc1nccc2c1ccn2CC1CCO1 (centres unmarked) [Compound 25] , I found its Emax recorded as 104

Looking up Cc1cncc(C)c1Nc1nccc2c1ccn2CC1CC1(F)F (centres unmarked) , I found its Emax recorded as 102

Looking up Cc1cc(C(F)(F)F)cc(C(C)C)c1Nc1nccc2c1ccn2CC1CCO1 (centres unmarked) , I found its Emax recorded as 104

Looking up "Cc1cncc(C)c1Nc1nccc2c1ccn2CC1COC1" , I found its Emax recorded as 88

Looking up "CCCCn1ccc2c(Nc3c(Cl)ccc4c3CCO4)nccc21" , I found its Emax recorded as 102

The measured values listed here are drawn from patent US20210277003A1.
